molecular target: M5 (Homo sapiens, UniProt P08912)
Sequence (P08912 whole entry): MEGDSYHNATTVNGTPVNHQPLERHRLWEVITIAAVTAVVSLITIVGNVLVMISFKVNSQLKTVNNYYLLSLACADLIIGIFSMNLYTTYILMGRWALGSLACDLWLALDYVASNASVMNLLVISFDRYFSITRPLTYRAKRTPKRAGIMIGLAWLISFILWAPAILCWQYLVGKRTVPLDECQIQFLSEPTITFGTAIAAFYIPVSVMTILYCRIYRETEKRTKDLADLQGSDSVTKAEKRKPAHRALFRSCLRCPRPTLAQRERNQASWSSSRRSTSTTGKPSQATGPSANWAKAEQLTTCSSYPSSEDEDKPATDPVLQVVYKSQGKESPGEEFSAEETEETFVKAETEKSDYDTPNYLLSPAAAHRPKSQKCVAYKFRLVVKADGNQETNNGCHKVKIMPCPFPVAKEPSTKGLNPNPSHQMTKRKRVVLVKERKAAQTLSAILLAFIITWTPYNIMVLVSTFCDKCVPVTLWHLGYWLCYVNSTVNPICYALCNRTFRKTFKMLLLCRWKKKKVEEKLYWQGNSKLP
Attribute measured: pIC50
Give bare numbers, as −log10 of the molar value.

Value of pIC50 reported for the molecule C[N+]1(C)CCC(OC(=O)C(c2ccccc2)c2ccccc2)CC1 [Compound 4-DAMP, reference compound] is 8.70

====

Target: UniProt Q9GZV3
Sequence (Q9GZV3 1-580): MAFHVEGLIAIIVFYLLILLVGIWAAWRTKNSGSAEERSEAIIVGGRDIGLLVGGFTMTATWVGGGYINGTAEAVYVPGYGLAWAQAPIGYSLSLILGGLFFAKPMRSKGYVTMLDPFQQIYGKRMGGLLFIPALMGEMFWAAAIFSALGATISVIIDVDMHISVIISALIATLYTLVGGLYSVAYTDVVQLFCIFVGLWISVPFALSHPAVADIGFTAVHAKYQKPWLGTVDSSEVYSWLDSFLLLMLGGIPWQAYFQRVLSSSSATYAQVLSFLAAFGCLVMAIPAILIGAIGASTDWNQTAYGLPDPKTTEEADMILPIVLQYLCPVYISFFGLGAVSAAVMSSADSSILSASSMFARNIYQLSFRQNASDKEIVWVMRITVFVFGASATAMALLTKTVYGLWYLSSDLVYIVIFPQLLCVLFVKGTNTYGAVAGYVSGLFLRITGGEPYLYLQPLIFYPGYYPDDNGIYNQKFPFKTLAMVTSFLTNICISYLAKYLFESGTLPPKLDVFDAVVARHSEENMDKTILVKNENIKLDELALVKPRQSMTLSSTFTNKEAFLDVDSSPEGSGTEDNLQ
Attribute measured: pIC50
Give bare numbers, as −log10 of the molar value.

Log: UniProt Q9GZV3, compound C[N+]1(C)CCOC(O)(c2ccc(-c3ccc(C4(O)C[N+](C)(C)CCO4)cc3)cc2)C1 (stereo not shown) [Hemicholinium-3, reference compound] , pIC50 = 7.92

====

biological target: human A2b receptor (Homo sapiens); construct: expressed in transfected cells; host or cells: HEK 293; assay: Affinity towards the adenosine A2b receptor ([3H]-DPCPX binding, HEK 293 membranes); conditions: read-out: A2b Ki (nM) ± sd
Sequence (P29275 whole entry): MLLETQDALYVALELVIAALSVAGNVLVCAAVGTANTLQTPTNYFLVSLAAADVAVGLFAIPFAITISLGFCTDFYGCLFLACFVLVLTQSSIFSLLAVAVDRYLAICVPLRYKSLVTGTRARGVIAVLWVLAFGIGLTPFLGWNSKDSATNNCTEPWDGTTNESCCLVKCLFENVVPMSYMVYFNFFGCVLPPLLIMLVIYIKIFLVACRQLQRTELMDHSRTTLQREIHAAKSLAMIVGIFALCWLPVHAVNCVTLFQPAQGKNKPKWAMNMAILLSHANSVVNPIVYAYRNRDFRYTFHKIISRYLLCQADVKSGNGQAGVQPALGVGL
Attribute measured: Ki (nM)
Numbers only, in nM.

Worked set:
| Compound | Unit annotation | Ki |
| --- | --- | --- |
| CCCCCc1nc(N)c2nc(-n3nccn3)n(C)c2n1 | nM | 153 |
| Cn1c(-n2nccn2)nc2c(N)nc(CCc3ccccc3)nc21 | nM | 2330 |
| O=c1nc2[nH]c3ccccc3nc-2c(=O)[nH]1 [Alloxazine, reference compound] | nM | 3.8 |
| CCCCc1nc(N)c2nc(-n3nccn3)n(C)c2n1 | nM | 627 |

Read the next record carefully.
Briefly, Ki measured for Cn1c(-n2nccn2)nc2c(N)nccc21 : 926

====

biological target: ADOtransporter; experiment: Receptor binding study, ADO transporter; conditions: reference compound
Attribute measured: pIC50
Answers are plain numbers, as −log10 of the molar value.

Entry under test: O=[N+]([O-])c1ccc(CSc2ncnc3c2ncn3[C@@H]2O[C@H](CO)[C@@H](O)[C@H]2O)cc1 [NBTI, reference compound] . Its pIC50 was 9.52

====

target: NMDA; assay: Receptor binding study, NMDA; conditions: reference compound
Attribute measured: pIC50
One number for each entry, as −log10 of the molar value.

Entry O=C(O)[C@@H]1C[C@H](CP(=O)(O)O)CCN1 [CGS 19755, reference compound] , pIC50 reported as 6.01
